- PROCEDURE DETAILS: chemical genetic growth profiling, strain panel (AID 1159580);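 further: tested at 20 µM; growth read once vehicle control cultures reached saturation at 30 °C; 1 = growth at the plate median or of vehicle wells; lower values mean less growth of the strain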
- EXPERIMENTAL CONTEXT: S. cerevisiae deletion strains, growth OD, locus YLR357W, strain rsc2, stronger effect = lower value
Among all 5,500 compounds or so, about 2,000 (36%) were called active. Another 18% or so got no clear call; they are omitted. The list shows a part of the results.
I'd appreciate it if you could supply normalized growth values for the items below.
Numbers only.

Please review the entries below; each comes with its answer.
[[record]]
compound = "CCC(=O)O[C@H]1[C@H](O[C@@H]2[C@@H](C)[C@H](O[C@H]3C[C@@](C)(OC)[C@@H](O)[C@H](C)O3)[C@@H](C)C(=O)O[C@H](CC)[C@@](C)(O)[C@H](O)[C@@H](C)C(=O)[C@H](C)C[C@@]2(C)O)O[C@H](C)C[C@@H]1N(C)C"
endpoint_result = 0.759

[[record]]
compound = "CC(=O)NC1SCCC1=O (stereo unspecified)"
endpoint_result = 0.991

[[record]]
compound = "CNC(C)[C@H](O)c1ccccc1 (stereo partly specified)"
endpoint_result = 0.958

[[record]]
compound = "CN1CCC(=C2c3ccccc3CC(=O)c3sccc32)CC1"
endpoint_result = 0.969

[[record]]
compound = "CN(C)C(=S)SSC(=S)N(C)C"
endpoint_result = 0.117


Provide the reported normalized growth of each entry below, same order.
1. COCCc1ccc(OCC(O)CNC(C)C)cc1 (stereo unspecified)
2. CC(NCCc1ccc(O)cc1)C(O)c1ccc(O)cc1 (stereo unspecified)
3. c1cncc(C2CCCCN2)c1 (stereo unspecified)
4. CCCCNc1cc(C(=O)O)cc(S(N)(=O)=O)c1Oc1ccccc1
5. CC(=O)OCC(=O)[C@H]1CCC2C3CCC4=CC(=O)CC[C@]4(C)C3CC[C@@]21C (stereo partly specified)
6. CCCCCCNC(=O)n1cc(F)c(=O)[nH]c1=O
7. COP(=O)(OC)OC=C(Cl)Cl

[0.973, 0.916, 0.959, 0.977, 1.02, 0.803, 1.07]

List the reported normalized growth of each compound below.
1. NC(=O)C(c1ccccc1)(c1ccccc1)C1CCN(CCc2ccc3c(c2)CCO3)C1 (stereo unspecified)
2. CC(CCc1ccccc1)NC(C)C(O)c1ccc(O)cc1 (stereo unspecified)
3. COc1cc2c(cc1OC)Cc1cc(OC)c(OC)cc1Cc1cc(OC)c(OC)cc1C2
4. COc1ccc2c(c1OC)C(=O)O[C@@H]2[C@H]1c2cc3c(cc2CCN1C)OCO3

1. 0.966
2. 0.983
3. 1.05
4. 0.998

Hello, I would appreciate it if you could give normalized growth for each entry below.
1. CN[C@@H](C)[C@@H](O)c1ccccc1
2. CCCCCCCCNC(C)C(O)c1ccc(SC(C)C)cc1 (stereo unspecified)
3. CCOC(=O)CCC(=O)O[C@H]1[C@H](O[C@@H]2[C@@H](C)[C@H](O[C@H]3C[C@@](C)(OC)[C@@H](O)[C@H](C)O3)[C@@H](C)C(=O)O[C@H](CC)[C@@](C)(O)[C@H](O)[C@@H](C)C(=O)[C@H](C)C[C@@]2(C)O)O[C@H](C)C[C@@H]1N(C)C
4. CC(N)C(=O)OC(C)(C)Cc1ccc(Cl)cc1 (stereo unspecified)
5. CN(C)CC/C=C1\c2ccccc2Sc2ccc(Cl)cc21

0.972
0.111
0.982
1.03
0.935
